system: Capsicum phytophthora blight; test: In vitro fungicidal activity, PDA colony diameter; type: cell-based; conditions: 96 h
Classify by measured inhibition of growth at 50 mg/kg: 1 if it is equal to or exceeds 30%, -1 if it is smaller.

Input Smiles	Class Assignment
CC1=NNC(=O)N(NS(=O)(=O)c2c(C)noc2C)C1	-1
CC1=NNC(=O)N(N(S(=O)(=O)c2ccc(C)cc2)S(=O)(=O)c2ccc(C)cc2)C1	-1
CC1=NNC(=O)N(NS(=O)(=O)c2ccc(OC(F)(F)F)cc2)C1	-1
CCS(=O)(=O)N(N1CC(C)=NNC1=O)S(=O)(=O)CC	1
CC1=NNC(=O)N(NS(=O)(=O)c2ccc3c(c2)OCCO3)C1	-1
CC1=NNC(=O)N(NS(=O)(=O)c2cn(C)c(C)n2)C1	-1
CC1=NNC(=O)N(N(S(=O)(=O)c2cccnc2)S(=O)(=O)c2cccnc2)C1	-1
CC1=NNC(=O)N(NS(=O)(=O)c2c(C)cc(C)cc2C)C1	-1
CCCCS(=O)(=O)N(N1CC(C)=NNC1=O)S(=O)(=O)CCCC	1

----------
test system: Cucumber fusarium wilt; assay: In vitro fungicidal activity, PDA colony diameter; assay type: cell-based; settings: 96 h, 50 mg/kg, inhibition of colony diameter, read-out: Fungicidal activity (%) Cucumber fusarium wilt

Compound	Measurement Unit	inhibition of growth at 50 mg/kg
CC1=NNC(=O)N(NS(=O)(=O)c2ccc(Br)cc2)C1 [Ia-22]	%	14.7
CCCS(=O)(=O)N(N1CC(C)=NNC1=O)S(=O)(=O)CCC [Ib-3]	%	0
CC1=NNC(=O)N(NS(=O)(=O)c2ccc(F)cc2)C1 [Ia-18]	%	14.7
CC1=NNC(=O)N(NS(=O)(=O)c2ccc(C#N)cc2)C1 [Ia-25]	%	8.8
CC1=NNC(=O)N(NS(=O)(=O)C2CCCCC2)C1 [Ia-6]	%	20.6
CC1=NNC(=O)N(NS(=O)(=O)c2ccc(C(F)(F)F)cc2)C1 [Ia-26]	%	2.9
CC1=NNC(=O)N(NS(=O)(=O)c2ccc(C)cc2)C1 [Ia-12]	%	25
CC1=NNC(=O)N(NS(=O)(=O)c2ccc(Cl)cc2)C1 [Ia-21]	%	5.9
CC1=NNC(=O)N(NS(=O)(=O)c2ccccc2C)C1 [Ia-10]	%	5.9
CC1=NNC(=O)N(N(S(C)(=O)=O)S(C)(=O)=O)C1 [Ib-1]	%	0
CC(=O)Nc1ccc(S(=O)(=O)NN2CC(C)=NNC2=O)cc1 [Ia-24]	%	0
CC1=NNC(=O)N(NS(=O)(=O)c2ccc3c(c2)CCO3)C1 [Ia-33]	%	5.1
CC1=NNC(=O)N(/N=C/c2cccnc2)C1 [Pymetrozine, reference compound]	%	5
CCCCS(=O)(=O)N(N1CC(C)=NNC1=O)S(=O)(=O)CCCC [Ib-4]	%	20
CC1=NNC(=O)N(N(S(=O)(=O)c2cccnc2)S(=O)(=O)c2cccnc2)C1 [Ib-9]	%	7.7
CC1=NNC(=O)N(NS(C)(=O)=O)C1 [Ia-1]	%	0
CC1=NNC(=O)N(NS(=O)(=O)c2ccsc2)C1 [Ia-29]	%	12.8
CC1=NNC(=O)N(N(S(=O)(=O)c2ccc(C)cc2)S(=O)(=O)c2ccc(C)cc2)C1 [Ib-6]	%	0
CC(=O)Nc1ccc(S(=O)(=O)N(N2CC(C)=NNC2=O)S(=O)(=O)c2ccc(NC(C)=O)cc2)cc1 [Ib-8]	%	0
CC1=NNC(=O)N(NS(=O)(=O)C2CC2)C1 [Ia-5]	%	8.8
CC1=NNC(=O)N(NS(=O)(=O)c2ccccc2F)C1 [Ia-16]	%	2.9

----------
test system: Maize borers; assay: Test of insecticidal activity against maize borers (leaf immersion); settings: read-out: Mortalities (%) Maize borers
Classify by measured mortality at 600 mg/kg: Fulfilled if it is equal to or exceeds 20%, Not fulfilled if it is smaller.

Input Smiles	Class Assignment
CC1=NNC(=O)N(NS(=O)(=O)c2c(C)noc2C)C1	Not fulfilled
CC1=NNC(=O)N(NS(=O)(=O)c2ccc(F)cc2)C1	Fulfilled
CC1=NNC(=O)N(NS(=O)(=O)c2ccc(C(F)(F)F)cc2)C1	Fulfilled
CC(=O)Nc1ccc(S(=O)(=O)NN2CC(C)=NNC2=O)cc1	Not fulfilled
CC1=NNC(=O)N(N(S(C)(=O)=O)S(C)(=O)=O)C1	Not fulfilled
CC1=NNC(=O)N(N(S(=O)(=O)c2cccnc2)S(=O)(=O)c2cccnc2)C1	Not fulfilled
CC1=NNC(=O)N(NS(=O)(=O)c2ccc(F)c(F)c2F)C1	Fulfilled
CC1=NNC(=O)N(NS(=O)(=O)c2ccc(C)cc2)C1	Not fulfilled
CC1=NNC(=O)N(NS(=O)(=O)c2ccc(OC(F)(F)F)cc2)C1	Not fulfilled
CCS(=O)(=O)N(N1CC(C)=NNC1=O)S(=O)(=O)CC	Not fulfilled

----------
test system: Cucumber fusarium wilt; test: In vitro fungicidal activity, PDA colony diameter; type: cell-based; details: 96 h, 50 mg/kg, inhibition of colony diameter, read-out: Fungicidal activity (%) Cucumber fusarium wilt
Quantity Name: inhibition of growth at 50 mg/kg (%)

Compound	Value Modifier	Quantitative Result
CCCCS(=O)(=O)NN1CC(C)=NNC1=O	=	0
CCS(=O)(=O)NN1CC(C)=NNC1=O	=	5
CC1=NNC(=O)N(NS(=O)(=O)c2cccc3ccccc23)C1	=	20.5
CC1=NNC(=O)N(NS(=O)(=O)c2cccc(F)c2)C1	=	5.9
CC1=NNC(=O)N(NS(=O)(=O)c2cn(C)c(C)n2)C1	=	8.8
COC(=O)Nc1nc2ccccc2[nH]1 [Carbendazim, reference compound]	<	50
CCCS(=O)(=O)NN1CC(C)=NNC1=O	=	0
CC1=NNC(=O)N(NS(=O)(=O)c2ccc3c(c2)OCCO3)C1	=	8.8
CC1=NNC(=O)N(NS(=O)(=O)c2ccc(F)cc2F)C1	=	11.8
N#Cc1c(Cl)c(Cl)c(Cl)c(C#N)c1Cl [Chlorothalonil, reference compound]	=	100

----------
tested on: Watermelon anthracnose; test: In vitro fungicidal activity, PDA colony diameter; type: cell-based; conditions: 50 mg/kg, inhibition of colony diameter; read-out: Fungicidal activity (%) Watermelon anthracnose
Quantity Name: inhibition at 50 mg/kg (%)

Compound	Quantity Name	Measurement Unit	Quantitative Result
CC1=NNC(=O)N(NS(=O)(=O)c2ccc3c(c2)CCO3)C1 [Ia-33]	inhibition at 50 mg/kg	%	0
CC1=NNC(=O)N(NS(=O)(=O)c2cccc3ccccc23)C1 [Ia-8]	inhibition at 50 mg/kg	%	0
CC1=NNC(=O)N(NS(=O)(=O)c2ccc(Br)cc2)C1 [Ia-22]	inhibition at 50 mg/kg	%	56.3
CCS(=O)(=O)NN1CC(C)=NNC1=O [Ia-2]	inhibition at 50 mg/kg	%	33.3
CC1=NNC(=O)N(NS(=O)(=O)c2ccccc2C)C1 [Ia-10]	inhibition at 50 mg/kg	%	39.2
CC1=NNC(=O)N(NS(=O)(=O)c2cccc(C)c2)C1 [Ia-11]	inhibition at 50 mg/kg	%	36.1
CC1=NNC(=O)N(NS(=O)(=O)C2CC2)C1 [Ia-5]	inhibition at 50 mg/kg	%	16.4

----------
tested on: mosquito larvae (Culer pipiens pallens); test: Test of insecticidal activity against mosquito larvae (checked after 24 h); conditions: 24 h, read-out: Mortalities (%) against mosquito larvae

Compound	mortality at 5 mg/kg / %
CC1=NNC(=O)N(NS(=O)(=O)c2ccc(F)cc2)C1	100
CC1=NNC(=O)N(/N=C/c2cccnc2)C1 [Pymetrozine, reference compound]	40
CC1=NNC(=O)N(NS(=O)(=O)c2ccc(Br)cc2)C1	100
CC(=O)Nc1ccc(S(=O)(=O)NN2CC(C)=NNC2=O)cc1	45
CC1=NNC(=O)N(NS(=O)(=O)c2ccc(F)c(F)c2F)C1	100

----------
Attribute: mortality at 600 mg/kg
test system: Maize borers; assay: Test of insecticidal activity against maize borers (leaf immersion); conditions: read-out: Mortalities (%) Maize borers

Molecule	mortality at 600 mg/kg / %
CC1=NNC(=O)N(NS(=O)(=O)c2cn(C)cn2)C1	15
COc1ccc(S(=O)(=O)NN2CC(C)=NNC2=O)cc1	0
CC1=NNC(=O)N(NS(=O)(=O)c2cccc(F)c2)C1	10
CC1=NNC(=O)N(NS(C)(=O)=O)C1	0
CC1=NNC(=O)N(NS(=O)(=O)c2ccc(C#N)cc2)C1	25
CC1=NNC(=O)N(NS(=O)(=O)c2cccc(C)c2)C1	15
CC1=NNC(=O)N(NS(=O)(=O)c2ccc3c(c2)OCCO3)C1	10
CC1=NNC(=O)N(NS(=O)(=O)c2ccccc2)C1	25
CCCCS(=O)(=O)NN1CC(C)=NNC1=O	5
CC1=NNC(=O)N(NS(=O)(=O)C2CCCCC2)C1	40
CC1=NNC(=O)N(N(S(=O)(=O)c2ccccc2)S(=O)(=O)c2ccccc2)C1	25
CC1=NNC(=O)N(NS(=O)(=O)c2ccccc2F)C1	15
CC1=NNC(=O)N(NS(=O)(=O)c2ccccc2C)C1	40
CCCS(=O)(=O)N(N1CC(C)=NNC1=O)S(=O)(=O)CCC	10
CC1=NNC(=O)N(NS(=O)(=O)c2ccsc2)C1	15
CC1=NNC(=O)N(NS(=O)(=O)c2cccc3ccccc23)C1	0
CC(=O)Nc1ccc(S(=O)(=O)N(N2CC(C)=NNC2=O)S(=O)(=O)c2ccc(NC(C)=O)cc2)cc1	15
CC1=NNC(=O)N(N(S(=O)(=O)c2ccc(C)cc2)S(=O)(=O)c2ccc(C)cc2)C1	15
CC1=NNC(=O)N(NS(=O)(=O)c2cn(C)c(C)n2)C1	0
CC1=NNC(=O)N(NS(=O)(=O)c2ccc(C(C)(C)C)cc2)C1	45
CC1=NNC(=O)N(/N=C/c2cccnc2)C1 [Pymetrozine, reference compound]	35

// data source = patent US11203577B2
